Target: T1, Human Nectin-4 (human, UniProt Q96NY8 32-349, limits assumed)
T1 construct: Protein immobilised on the SPR chip; also called target protein
T1 sequence: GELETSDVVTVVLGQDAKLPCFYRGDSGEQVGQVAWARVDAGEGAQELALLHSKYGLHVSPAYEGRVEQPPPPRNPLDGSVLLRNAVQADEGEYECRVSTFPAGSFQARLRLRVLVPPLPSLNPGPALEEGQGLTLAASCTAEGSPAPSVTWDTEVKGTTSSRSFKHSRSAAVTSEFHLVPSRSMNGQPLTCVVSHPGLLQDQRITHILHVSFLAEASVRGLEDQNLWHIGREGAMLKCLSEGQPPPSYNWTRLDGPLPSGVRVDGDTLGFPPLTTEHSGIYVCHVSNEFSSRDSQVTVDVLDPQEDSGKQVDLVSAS
Assay: Table 2B (DELFIA or SPR)
pKd: −log10 of the molar value. Bridges are numbered along the chain shown (N, C = ends). Primed or numbered codes have the meaning given here. Where no end group is shown, it is not given here. The star is where a group is joined. Biotin = O=C1N[C@H]2[C@H](CS[C@H]2CCCCC(=O)*)N1; PEG4″ = 4(ethylene glycol)
The following binders are shown together with reported pKd values.

{"columns": ["Binder", "pKd"],
 "data": [
  ["Ac-CEYDEEFFAGLKRLRGGDICYYIKKKFDKVPDLCIKEILDKLGC-OH (designed binder, disulfide 1-34, 20-44) [C5]", 7.72],
  ["Ac-CEYDEEFFKGLKRLRGGDICYYIKKKFKKVPDLCIEEILDKLGC-OH (designed binder, disulfide 1-34, 20-44) [C25]", 8.43],
  ["Ac-CEYDEEFFLALKRLRGGDICYYIKKKFKKVPKLCIEEILEKLGC-OH (designed binder, disulfide 1-34, 20-44) [C77]", 9.24],
  ["{Biotin-PEG4″}-CEYDEAFFTALARLRGGDICQYIQAKFQYLPGLCIEEILDNLGCS-OH (designed binder, disulfide 1-34, 20-44) [C151]", 9.17],
  ["{Biotin-PEG4″}-CEYDEEFFTALKRLRGDDICSYIQASFQYLPGLCIEEILDNLGCS-OH (designed binder, disulfide 1-34, 20-44) [C182]", 8.52],
  ["Ac-CEYDEEFFAGLKRLRRGDICYYIKKKFDKVPDLCIEEILDKLGC (designed binder, disulfide 1-34, 20-44) [C14]", 7.85],
  ["{Biotin-PEG4″}-CEYDEEFFTALARLRGGDICEYIQAKFQYLPKLCIEEILDNLGCS-OH (designed binder, disulfide 1-34, 20-44) [C167]", 8.92],
  ["Ac-CEYDEEFFTALKRLRGGDICYYIQASFQYLPGLCIEEILDNLGCS (designed binder, disulfide 1-34, 20-44) [C108]", 8.24],
  ["H-CEDDFQFFADLKRLRGGDICYYIRLKFDKVPDLCIKEILDKLGC-OH (designed binder, disulfide 1-34, 20-44) [C4]", 7.84],
  ["Ac-CEYDEKFFTGLKRLRGGDICYYIKKKFKKVPKLCIEEILDKLGC-OH (designed binder, disulfide 1-34, 20-44) [C70]", 8.66],
  ["Ac-CEYDEEFFNGLKRLRGGDICYYIKKKFKKVPDLCIEEILDKLGC-OH (designed binder, disulfide 1-34, 20-44) [C17]", 8.38],
  ["{Biotin-PEG4″}-CEYDEEFFTALARLRGGDICYYIQAKFQYLPKLCIEEILDNLGCS-OH (designed binder, disulfide 1-34, 20-44) [C166]", 9.12]
]}
